Hey, just so you know, these numbers are from patent US11760773B2.

- ASSAY TEXT: Int 1-4 and gemcitabine comparative PK in male cynomolgus monkey (study g)
- Format: in vivo
- ASSAY CONDITIONS: plasma, male cynomolgus monkey, after iv Int 1-4 10 mg/kg (study g)
EXPERIMENTAL READOUT: half-life (min)

> print(dat)
                                   compound  quantitative.readout
1  Nc1ccn([C@@H]2O[C@H](CO)[C@@H](O)C2(F)F)c(=O)n1 [Gemcitabine, gemcitabine]                  10.8
2  COc1cc(OC)c2oc(COC(=O)Nc3ccn([C@@H]4O[C@H](CO)[C@@H](O)C4(F)F)c(=O)n3)cc2c1 [Int 1-4]                  59.4

---

- ASSAY TEXT: Compound 1 and gemcitabine plasma PK in the male cynomolgus monkey (study h)
- Assay type: in vivo
- ASSAY CONDITIONS: plasma, after iv gemcitabine 2.28 mg/kg
- Method: Objectives: to compare the plasma pharmacokinetics and stability of the Compound 1 with Int 1-4 and in plasma following a single intravenous infusion administration of Compound 1 at 5 mg/kg and 10 mg/kg with equimolar gemcitabine at 2.28 mg/kg in male cynomolgous monkeys. PK measurements: compare PK parameters C0, CL, Vdss, Cmax, tmax, t1/2, AUC(0-t), AUC(0-inf), MRT(0-t), MRT(0-inf) for Compound 1 and Int 1-4 with gemcitabine.
EXPERIMENTAL READOUT: clearance

> print(dat)
                                        mol         result
1  Nc1ccn([C@@H]2O[C@H](CO)[C@@H](O)C2(F)F)c(=O)n1  247 mL/min/kg

---

- ASSAY TEXT: Int 1-4 dog plasma PK (study j)
- Type: in vivo
- ASSAY CONDITIONS: male beagle dog, after iv Int 1-4 20 mg/kg (study j), read-out: Vdss
EXPERIMENTAL READOUT: Vd (L/kg)

> print(dat)
                                        mol  experimental.readout  quantitative.readout
1  COc1cc(OC)c2oc(COC(=O)Nc3ccn([C@@H]4O[C@H](CO)[C@@H](O)C4(F)F)c(=O)n3)cc2c1                    Vd                  0.58

---

- ASSAY TEXT: Int 1-4 plasma PK in the male cynomolgus monkey (study f)
- Type: in vivo
- ASSAY CONDITIONS: after iv Int 1-4 10 mg/kg (study f), read-out: Vdss
EXPERIMENTAL READOUT: Vd

> print(dat)
                                   compound      result
1  Nc1ccn([C@@H]2O[C@H](CO)[C@@H](O)C2(F)F)c(=O)n1 [Gemcitabine, gemcitabine]   0.19 L/kg
2  COc1cc(OC)c2oc(COC(=O)Nc3ccn([C@@H]4O[C@H](CO)[C@@H](O)C4(F)F)c(=O)n3)cc2c1 [Int 1-4]  0.253 L/kg

---

- ASSAY TEXT: Compound 1 and gemcitabine plasma PK in the male cynomolgus monkey (study h)
- Assay type: in vivo
- ASSAY CONDITIONS: plasma, after iv gemcitabine 2.28 mg/kg
EXPERIMENTAL READOUT: AUC(0-t)

> print(dat)
                                        mol       result
1  Nc1ccn([C@@H]2O[C@H](CO)[C@@H](O)C2(F)F)c(=O)n1  164 ng·h/mL

---

- ASSAY TEXT: Comparative plasma PK of Int 1-4 versus gemcitabine in mouse (study a)
- Format: in vivo
- ASSAY CONDITIONS: mouse; plasma, CD-1 mice, after iv gemcitabine 5.29 mg/kg; read-out: MRT0-inf
EXPERIMENTAL READOUT: MRT inf (min)

> print(dat)
                                        mol  result.units  quantitative.readout
1  Nc1ccn([C@@H]2O[C@H](CO)[C@@H](O)C2(F)F)c(=O)n1           min                  32.5

---

- ASSAY TEXT: Comparative dog plasma PK of Int 1-4 versus gemcitabine (study k)
- Assay type: in vivo
- ASSAY CONDITIONS: male beagle dog, after iv Int 1-4 5 mg/kg (study k)
EXPERIMENTAL READOUT: clearance (mL/min/kg)

> print(dat)
                                        mol  experimental.readout  quantitative.readout
1  COc1cc(OC)c2oc(COC(=O)Nc3ccn([C@@H]4O[C@H](CO)[C@@H](O)C4(F)F)c(=O)n3)cc2c1             clearance                  30.8

---

Measured half-life by item
- ASSAY TEXT: Int 1-4 dog plasma PK (study j)
- Assay type: in vivo
- ASSAY CONDITIONS: male beagle dog, after iv Int 1-4 10 mg/kg (study j)
EXPERIMENTAL READOUT: half-life (h)

> print(dat)
                                        mol  quantitative.readout
1  COc1cc(OC)c2oc(COC(=O)Nc3ccn([C@@H]4O[C@H](CO)[C@@H](O)C4(F)F)c(=O)n3)cc2c1                  0.54
2  Nc1ccn([C@@H]2O[C@H](CO)[C@@H](O)C2(F)F)c(=O)n1                   3.1

---

- ASSAY TEXT: Comparative plasma PK of Compound 1 versus Int 1-4 in male CD-1 mice (study b)
- Format: in vivo
- ASSAY CONDITIONS: male, CD-1, mouse, iv, 11.6 mg/kg, after iv Compound 1 11.6 mg/kg
Counter-ions that a name gives are not always drawn.
EXPERIMENTAL READOUT: clearance (mL/min/kg)

> print(dat)
                                   compound  quantitative.readout
1  COc1cc(OC)c2oc(COC(=O)Nc3ccn([C@@H]4O[C@H](COP(=O)(O)O)[C@@H](O)C4(F)F)c(=O)n3)cc2c1 [Compound 1, ammonium salt]                  1970

---

- ASSAY TEXT: Comparative dog plasma PK of Int 1-4 versus gemcitabine (study k)
- Format: in vivo
- ASSAY CONDITIONS: male beagle dog, after iv Int 1-4 5 mg/kg (study k), read-out: Cmax
EXPERIMENTAL READOUT: Cmax (ng/mL)

> print(dat)
                                        mol  quantitative.readout
1  Nc1ccn([C@@H]2O[C@H](CO)[C@@H](O)C2(F)F)c(=O)n1                   872
2  COc1cc(OC)c2oc(COC(=O)Nc3ccn([C@@H]4O[C@H](CO)[C@@H](O)C4(F)F)c(=O)n3)cc2c1                 30500

---

- ASSAY TEXT: Comparative plasma PK of Compound 1 versus Int 1-4 in male CD-1 mice (study b)
- Assay type: in vivo
- ASSAY CONDITIONS: male, CD-1, mouse, iv, 10 mg/kg, after iv Int 1-4 10.0 mg/kg, Formulation 2
EXPERIMENTAL READOUT: C0 (ng/mL)

> print(dat)
                                        mol  quantitative.readout
1  COc1cc(OC)c2oc(COC(=O)Nc3ccn([C@@H]4O[C@H](CO)[C@@H](O)C4(F)F)c(=O)n3)cc2c1                 43000

---

- ASSAY TEXT: Comparative plasma PK of Int 1-4 versus gemcitabine in mouse (study a)
- Type: in vivo
- ASSAY CONDITIONS: mouse; plasma, CD-1 mice, after iv gemcitabine 5.29 mg/kg
EXPERIMENTAL READOUT: half-life

> print(dat)
                                   molecule   result
1  Nc1ccn([C@@H]2O[C@H](CO)[C@@H](O)C2(F)F)c(=O)n1 [Gemcitabine, gemcitabine]  ~54 min

---

- ASSAY TEXT: Comparative plasma PK of Compound 1 versus Int 1-4 in male CD-1 mice (study b)
- Assay type: in vivo
- ASSAY CONDITIONS: male, CD-1, mouse, iv, 11.6 mg/kg, after iv Compound 1 11.6 mg/kg, read-out: Tmax
EXPERIMENTAL READOUT: Tmax

> print(dat)
                                        mol   result
1  Nc1ccn([C@@H]2O[C@H](CO)[C@@H](O)C2(F)F)c(=O)n1  1.5 min
2  COc1cc(OC)c2oc(COC(=O)Nc3ccn([C@@H]4O[C@H](CO)[C@@H](O)C4(F)F)c(=O)n3)cc2c1  1.5 min
